test.system: human natriuretic peptide receptor B (NPR-B) (human) (UniProt P20594)
Sequence (P20594 23-1047): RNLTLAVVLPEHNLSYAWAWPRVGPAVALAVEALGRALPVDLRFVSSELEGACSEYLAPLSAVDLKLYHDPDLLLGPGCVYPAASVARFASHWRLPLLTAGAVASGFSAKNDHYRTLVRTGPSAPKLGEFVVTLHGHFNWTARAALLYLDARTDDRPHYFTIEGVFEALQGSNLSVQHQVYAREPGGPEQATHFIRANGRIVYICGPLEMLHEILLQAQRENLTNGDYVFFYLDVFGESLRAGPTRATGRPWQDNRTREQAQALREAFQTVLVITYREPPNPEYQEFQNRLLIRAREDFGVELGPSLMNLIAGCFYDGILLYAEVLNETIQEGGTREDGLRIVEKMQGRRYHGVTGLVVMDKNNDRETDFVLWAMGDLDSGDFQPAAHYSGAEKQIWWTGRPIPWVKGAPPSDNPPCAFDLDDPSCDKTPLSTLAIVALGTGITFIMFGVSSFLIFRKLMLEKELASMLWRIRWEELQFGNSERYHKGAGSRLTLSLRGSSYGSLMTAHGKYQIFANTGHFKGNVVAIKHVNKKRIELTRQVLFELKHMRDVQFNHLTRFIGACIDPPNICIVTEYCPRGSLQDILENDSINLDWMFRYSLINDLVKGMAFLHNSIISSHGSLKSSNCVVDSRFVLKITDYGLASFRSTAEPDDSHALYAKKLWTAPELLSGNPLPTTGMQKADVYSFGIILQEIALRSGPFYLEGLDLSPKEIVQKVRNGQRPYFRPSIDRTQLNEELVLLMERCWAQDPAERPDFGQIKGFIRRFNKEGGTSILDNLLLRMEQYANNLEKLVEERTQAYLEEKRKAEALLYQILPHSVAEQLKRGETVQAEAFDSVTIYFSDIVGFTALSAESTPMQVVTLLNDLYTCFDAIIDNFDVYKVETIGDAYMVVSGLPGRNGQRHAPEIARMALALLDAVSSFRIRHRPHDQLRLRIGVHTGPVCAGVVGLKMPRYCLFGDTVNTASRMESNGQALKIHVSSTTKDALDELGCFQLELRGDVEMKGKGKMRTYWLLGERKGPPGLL
assay.overview: cell-based or functional assay
Ends that are not written are not given here.
observed.property: % efficacy versus CDNP on NPR-B, membrane cGMP assay (%)
Numeric only. Scale: %

Problem: Which % efficacy versus CDNP on NPR-B, membrane cGMP assay value is on record for GLSKGCFGLKLDRIGSMSGLGCPSLAAPRPNAPSTSA (ends and bridges not checked; cysteine pairing not given here) [CDNP-A4A5] ?
Solution: 85

Next:
Problem: Which % efficacy versus CDNP on NPR-B, membrane cGMP assay value is on record for GLSKGCFGLKLDRIGSMSGLGCPSLADPRPNAPSTSA (ends and bridges not checked; cysteine pairing not given here) [CDNP-A4] ?
Solution: 92

Problem: Which % efficacy versus CDNP on NPR-B, membrane cGMP assay value is on record for GLSKGCFGLKLDRIGSMSGLGCPSSRAPRPNAPSTSA (ends and bridges not checked; cysteine pairing not given here) [CDNP-S3A5] ?
Solution: 118

Problem: Which % efficacy versus CDNP on NPR-B, membrane cGMP assay value is on record for GLSKGCFGLKLDRIGSMSGLGCPSLRAPRPNAPSTSA (ends and bridges not checked; cysteine pairing not given here) [CDNP-A5] ?
Solution: 87

From: patent US20120164142A1
